pIC50: −log10 of the molar value.
Published pIC50 for BTK (Homo sapiens), assembled from different documents, is shown next.
measured_parameter: pIC50

compound=C=CC(=O)N1CCC[C@@H](n2nc(-c3ccc(C(=O)Nc4ccccn4)cc3)c3c(N)ncc(Br)c32)C1 prefix_operator== value_observed=7.82
compound="CC#CC(=O)N1C2C[C@@H](C1c1nc(-c3ccc(C(=O)Nc4cc(C(F)(F)F)ccn4)cc3)c3c(N)nccn13)N(C(C)C)C2 (some centres unmarked)" prefix_operator== value_observed=7.23
compound=Cc1c(NC(=O)c2ccc(C(C)(C)C)cc2)cccc1-c1ncnc(Nc2ccc(C(=O)NCCN3CCOCC3)cc2)n1 prefix_operator== value_observed=7.88
compound=CCN(CC)S(=O)(=O)c1ccccc1NCC(=O)N[C@@H]1CCCN(c2ncnc3[nH]ccc23)C1 prefix_operator=> value_observed=7.00
compound=CC(C)(O)c1cn2cc(NC(=O)c3coc(-c4ccnc(N)c4F)n3)c(-c3ccccc3)cc2n1 prefix_operator== value_observed=8.54
compound=CS(=O)(=O)Nc1cccc(-c2cnc3[nH]cc(C(=O)c4cc(NS(=O)(=O)C5CCCCC5)ccc4F)c3c2)c1 prefix_operator=≥ value_observed=5.00
compound=C=CC(=O)Nc1cc(Nc2nc(-c3ccnc(N4CCc5c(sc6c5CCCC6)C4=O)c3CO)cn(C)c2=O)ccc1N1CCN(C2CCOCC2)C[C@H]1C(F)(F)F prefix_operator== value_observed=9.60
compound="CC1CCCN1S(=O)(=O)c1ccccc1NCC(=O)N[C@@H]1CCCN(c2ncnc3[nH]ncc23)C1 (some centres unmarked)" prefix_operator=> value_observed=7.00
compound=Cn1cc(-c2cn3nccc3c(-c3ccc(CNC(=O)c4nc(C(C)(C)CF)no4)c(F)c3)n2)cn1 prefix_operator=> value_observed=9.00
compound=CN(C/C=C/C(=O)Nc1cccc(-n2c(=O)n(-c3ccc(Oc4ccccc4)cc3)c3c(N)ncnc32)c1)[C@H]1CCOC1 prefix_operator=> value_observed=7.00
compound=Cc1cc(-c2ncnc3[nH]c(C4=CCS(=O)(=O)CC4)cc23)ccc1CNC(=O)c1cnc(C(C)(C)C)s1 prefix_operator=> value_observed=8.00
compound=O=C(c1cc(O)ccc1F)c1c[nH]c2ncc(-c3ccccc3)cc12 prefix_operator=≥ value_observed=5.00
compound=C=CC(=O)N1CC[C@]2(C1)C[C@H](n1c(NC(=O)c3ccc(-c4ccc(N)nc4)s3)nc3ccccc31)C2 prefix_operator== value_observed=8.27
compound=Cc1ccc2c(N)c(C(N)=O)nnc2c1-c1cnc2[nH]ncc2c1 prefix_operator== value_observed=7.10
compound=C=CC(=O)N1CC(n2nc(-c3ccc(C(=O)Nc4ccccn4)cc3Cl)c3c(N)ncc(Cl)c32)C1 prefix_operator== value_observed=8.96
compound=C=CC(=O)N1CCC[C@@H](n2nc(-c3ccc(C(=O)Nc4ccccn4)cc3)c3c(N)ncc(Cl)c32)C1 prefix_operator== value_observed=8.77
compound=NC(=O)c1nnc2c(-c3ccc4nc(NCC5CCCC5)[nH]c4c3)cccc2c1N prefix_operator== value_observed=8.10
compound=C=CC(=O)N1CC[C@]2(C1)C[C@H](n1c(NC(=O)c3ccc(-c4ccnc(F)c4)s3)nc3ccccc31)C2 prefix_operator== value_observed=8.97
compound="C=CC(=O)N1CC(n2nc(-c3cc(O)cc(F)c3)c3c(N)ncnc32)Cc2cc(C)ccc21 (centres unmarked)" prefix_operator== value_observed=7.76
compound="C=CC(=O)N1CC2CC1CC2n1nc(-c2ccc(C(=O)Nc3ccccc3)cc2)c2c(N)ncnc21 (centres unmarked)" prefix_operator== value_observed=7.10
compound=CC#CC(=O)N1CC[C@@H](n2nc(-c3ccc(Oc4cc(F)cc(OCc5cnc(C)nc5)c4)cc3)c3c(N)ncnc32)C1 prefix_operator== value_observed=7.72
